system: Plasmodium falciparum; assay: MMV: Compounds (1uM) were screened in a 72hr growth assay monitored by flow cytometry both in the presence and absence of supplemental isopentenyl pyrophosphate (IPP) 200uM. Compounds which fail to show anti-malarial activity when chemically rescued by IPP are therefore specific to the apicoplast. The values are expressed as the ratio of the corresponding activity with and without IPP, respectively.; format: functional, W2
measureName: Ratio
Answers are plain numbers.

# molecule, assayValue
records = [
    ("Cc1ccc(NC(=O)Nc2cccc(Cl)c2)cc1F", 0.9455),
    ("Cc1ccc(S(=O)(=O)c2c(COC(=O)c3cccc(C)c3)c(-c3ccccc3)nn2C)cc1", 0.9265),
    ("COc1ccccc1CNC(=O)CCn1c(=O)[nH]c2ccccc2c1=O", 1.153),
]

Below are some molecules; for each one, tell me its Ratio.
1. Cc1c(C)n(CC(O)CNC2CCCCC2C)c2ccccc12 (stereo not given)
2. Br.CCN(CC)S(=O)(=O)c1ccc(-c2csc(Nc3ccc(C)c(C)c3)n2)cc1

Response:
1. 0.9649
2. 0.8

Record Ratio for all entries; do not skip any.
1. CCOc1cc2c(cc1OCC)C(c1cc(Cl)ccc1O)NCC2 (stereo not given)
2. Fc1ccc2[nH]c3c(NCCCN4CCOCC4)ncnc3c2c1
3. COc1ccc2nc(C)cc(Nc3ccccc3O)c2c1
4. CC(=O)c1ccc(NC(=O)CSc2nc(-c3ccccc3Cl)ns2)cc1
5. O=C(Cc1ccccc1)NC(c1ccc(Cl)cc1)c1c(O)ccc2ccccc12 (stereo not given)

Response:
1. 1.123
2. 0.8594
3. 0.7711
4. 1.02
5. 0.873

Value sought for every listed molecule: Ratio.
1. COc1ccc(CN2CCCC(C(=O)c3ccc(C(F)(F)F)cc3)C2)c(O)c1 (stereo not given)
2. Cc1cc(C)cc(Nc2cc(C)nc3nc(C(F)(F)F)nn23)c1
3. CCOC(=O)c1cnc2ccc(Cl)cc2c1NCCCN(C)C
4. COc1ccc(NC(=O)C2c3ccccc3C(=O)N(CC(C)C)C2c2cccs2)cc1Cl (stereo not given)

Response:
0.8852
0.8519
1.179
0.9242

For every record below, what is its Ratio?
1. CC(C)(C)CC(C)(C)NCC(O)COc1ccc2c(c1)CCC2.Cl (stereo not given)
2. COc1cccc(-c2nn(C)c3sc(C(=O)NCCN4CCN(c5ccccc5F)CC4)cc23)c1
3. COc1ccc(-c2cc3c(nn2)-c2ccccc2C3=O)cc1

Response:
[1.052, 0.7703, 1.105]

Just for reference, ChEMBL document CHEMBL2448809 is where these values come from.
